The measured values listed here are drawn from the supplement of paper PMC6555819.

Test system: LXRb homodimer (NR concentration 270 nM)
Assay: PBM binding z-score (relative to random genomic background probes); higher = stronger binding; sequences stand for … in GC…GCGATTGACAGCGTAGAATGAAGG
Parameter threshold = 0.3. Response is yes when PBM binding z-score meets or exceeds it, else no.

Some solved cases for reference:
- entry-sequence: "CCTGACGGGTCACTGACAGGTTATAGCATTTGGA"
  cat: "no"
- entry-sequence: "TGTCAAAGTTCAAAGGTAACGCAAGTATCCACAC"
  cat: "yes"
- entry-sequence: "ATCGAAAGGTCGAAGGTGAGTATACCCACCCGAA"
  cat: "yes"
- entry-sequence: "CCAGACAGGTGAGAAGGCAACTCAGCCTCGATTA"
  cat: "no"
- entry-sequence: "TCTAGCAGGCCAGAGTGTCACTCAAGAGGTACGG"
  cat: "no"
- entry-sequence: "TCTCGGAGGACACGCAGGTCAGAGCTTTCCAGAG"
  cat: "no"
- entry-sequence: "TTACGAAGGTGAGCTGAGGTCGTTGATCCAACTC"
  cat: "no"
- entry-sequence: "CCTAGTTGCTCAGGAGGTCACACACCGGATATGA"
  cat: "yes"
- entry-sequence: "AGAATGAGGTTATGATCAGGGAAACAGAATACAT"
  cat: "no"
- entry-sequence: "TATACAGGGTGAAAGGCCAGAGTACGAATGTCGA"
  cat: "yes"

Please indicate if the recorded PBM binding z-score for CGTCCAAGTTCAAAGGTCAGTGAAGAGATGACGG meets or exceeds 0.3.
yes

Is it the case that CGAACTAGGTCAAAACAGGACAGTGAAGGATGAT has PBM binding z-score reaching or exceeding 0.3?
yes

Dear colleague, could you confirm whether AATCCAGGGTCACTAGGCCAGAGTAGGTACGAAT has PBM binding z-score at or above 0.3?
yes

Can GGAACGAGGGCATTCGAGTTGATTGCATGGCGAT be said to have PBM binding z-score at or above 0.3?
no

Dear colleague, could you confirm whether GCATATAGGTAATACAAGGTTAAAGTCCGATTGT has PBM binding z-score at or above 0.3?
no

Check the entry TCTGCCAGGTCAACGATGGTCAGCTAATCTGCTA : does PBM binding z-score equal or exceed 0.3?
no

Please check the record ATATGTAGGTTAGCTGGGGCCATTCAGACTAGGC and state if its PBM binding z-score is at or above 0.3.
no

Identify whether the reported PBM binding z-score of the following sequence is 0.3 or greater: CCTTACGGGTCACGAGGTTATAGCGCGACGAGCG
no

Please check the record CCAGACAGGTGAGAAGGAAACTCAGCCTCGATTA and state if its PBM binding z-score is at or above 0.3.
no

For this sequence, is measured PBM binding z-score 0.3 or higher? TCTAGTTGGTCACGGAGGTCACGCACGACGGGTA
yes
